Test system: human PKK mRNA
Experiment: Antisense inhibition of human PKK mRNA in HepaRG cells, 1,000 nM, MOE/deoxy/cEt oligonucleotides (Example 3)
Assay type: cell-based
Settings: HepaRG cells, 1,000 nM antisense oligonucleotide, Table 29
Strand notation (5' to 3'): a small letter for the sugar, then the base; units joined by * are phosphorothioate-linked, units joined directly phosphodiester-linked; [ ] holds rarer units or linkages, { } end groups; capitals alone tell only the bases. e = 2'-O-(2-methoxyethyl) (MOE); k = constrained ethyl (cEt); [5mC] = 5-methylcytosine; d = 2'-deoxy (DNA)
property measured: % inhibition (%)
# number only, unit % dropped from output

Worked examples follow.
> print(dat)
                                  substance  measurement.target  data.value
1  548566 (antisense e[5mC]*eA*k[5mC]*dT*d[5mC]*dA*dG*dA*d[5mC]*dT*dG*dT*d[5mC]*kT*kG*eA) [compound 548566]      human PKK mRNA           0
2  548607 (eT*e[5mC]*kG*dG*dT*dG*dG*dT*dG*dG*dG*dA*dT*kT*kG*eG; antisense) [compound 548607]      human PKK mRNA          34
3  548605 (eT*eG*kG*d[5mC]*dG*dG*dG*dA*dT*dT*dG*dG*dT*kG*kG*eT; antisense) [compound 548605]      human PKK mRNA          12
4  548611 (antisense eG*e[5mC]*kG*dG*dG*dA*dT*d[5mC]*dG*dG*dT*dG*dG*kT*kG*eG) [compound 548611]      human PKK mRNA           7

For the substance 548574 (eG*eG*kT*d[5mC]*dT*dA*dA*d[5mC]*dT*d[5mC]*dT*dA*dA*kG*kG*eG; antisense) [compound 548574] , give its reported % inhibition.
0

Specify measured % inhibition for 548589 (eT*e[5mC]*kT*dG*dT*dT*dA*d[5mC]*d[5mC]*dT*dT*dG*dA*kG*kG*eA; antisense) [compound 548589] .
40
